The measurements presented in this section are drawn from PubChem BioAssay AID1259407.

System: CCRIS mutagenicity, Ames/micronucleus/aberration tests
Experiment: CCRIS mutagenicity studies
Conditions: Test System: AMES SALMONELLA TYPHIMURIUM; Strain/Indicator: TA100; Metabolic Activation: RAT, LIVER, S-9, AROCLOR 1254; Method: STANDARD PLATE
Active and inactive are the calls of the source. The rule behind the calls is not given here.
outcomeMeasure: mutagenic call

| compound | mutagenic call |
| --- | --- |
| O=C(/C=C/c1ccc([N+](=O)[O-])cc1)c1ccc([N+](=O)[O-])cc1 | inactive; negative |
| NN1C(=O)c2ccccc2C1=O | inactive; negative |
| ClC(Cl)=C(Cl)c1cccc(Cl)c1Cl | inactive; negative |
| O=C(/C=C/c1ccccc1)c1ccccc1 | inactive; negative |
| CC(C)=CC1C(C(=O)O)C1(C)C (stereo not drawn) | inactive; negative |

Which mutagenic call is listed for COc1ccccc1[N+](=O)[O-] ?
active; positive

Which mutagenic call is listed for C[C@@H]1CC2c3cc(Br)cc4c3c(cn4CC3CC3)C[C@H]2N(C)C1 (stereo partly drawn) ?
inactive; negative

Which mutagenic call is listed for N#CC(Br)Br ?
inactive; negative

Which mutagenic call is listed for CCOC(=O)CBr ?
inactive; negative

Which mutagenic call is listed for C1CCC(C2(C3CCCCC3)COCCOCCOCCOCCOCCOCCO2)CC1 ?
inactive; negative

Which mutagenic call is listed for Nc1ncn([C@@H]2O[C@H](CO)[C@@H](O)[C@@H]2O)c(=O)n1 ?
inactive; negative

Which mutagenic call is listed for Cc1cc2c(cc1C)C(C)c1ccccc1-2 (stereo not drawn) ?
active; positive

Which mutagenic call is listed for ONc1ncnc2c1ncn2Cc1ccccc1 ?
active; positive
